Collected pIC50 values appear next to each entry.
# TESTED TARGET: Collagenase 3 (Homo sapiens)
# METHOD: Inhibition of MMP13 (unknown origin) by fluorescence-based FRET assay
// returns pIC50 (minus log10 of molar concentration), number only

{"CHEMICAL STRING": "Cc1cc(COc2ccc([C@]3(N)CCN([C@H](CC(C)C)C(=O)NO)C3=O)cc2)c2ccccc2n1", "TESTED TARGET": "Collagenase 3 (Homo sapiens)", "pIC50": 6.34}

As a next step, examine the compound that follows.
Look up pIC50 of "COCCc1cc(COc2ccc([C@]3(N)CCN([C@H](CC(C)C)C(=O)NO)C3=O)cc2)c2ccccc2n1" and report it. 5.95

====

Collected bioavailability values appear next to each entry.
# METHOD: Oral bioavailability in Wistar rat at 5 mg/kg
# Format: ADME, organism-based
# MEASUREMENT CONDITIONS: in vivo
Write down the numeric answer in % and omit the unit.

{"CHEMICAL STRING": "COCCc1cc(COc2ccc([C@]3(N)CCN([C@H](CC(C)C)C(=O)NO)C3=O)cc2)c2ccccc2n1", "bioavailability / %": 59.7}

As a next step, examine the molecule that follows.
Look up bioavailability of "Cc1cc(COc2ccc([C@]3(N)CCN([C@H](CC(C)C)C(=O)NO)C3=O)cc2)c2ccccc2n1" and report it. 18.4

====

# METHOD: Half life in Wistar rat at 5 mg/kg, iv
# Type: ADME, organism-based
# Design: dose 5 mg/kg, route intravenous
# MEASUREMENT CONDITIONS: in vivo
Collected half-life values appear next to each entry.
Write down the numeric answer in h and omit the unit.

{"CHEMICAL STRING": "COCCc1cc(COc2ccc([C@]3(N)CCN([C@H](CC(C)C)C(=O)NO)C3=O)cc2)c2ccccc2n1", "UNIT DESCRIPTOR": "h", "half-life": 1.09}

As a next step, examine the molecule that follows.
Look up half-life of "Cc1cc(COc2ccc([C@]3(N)CCN([C@H](CC(C)C)C(=O)NO)C3=O)cc2)c2ccccc2n1" and report it. 2.69

====

Collected IC50 values appear next to each entry.
# TESTED TARGET: Neutrophil collagenase (Homo sapiens, UniProt P22894)
# Sequence (P22894 whole entry): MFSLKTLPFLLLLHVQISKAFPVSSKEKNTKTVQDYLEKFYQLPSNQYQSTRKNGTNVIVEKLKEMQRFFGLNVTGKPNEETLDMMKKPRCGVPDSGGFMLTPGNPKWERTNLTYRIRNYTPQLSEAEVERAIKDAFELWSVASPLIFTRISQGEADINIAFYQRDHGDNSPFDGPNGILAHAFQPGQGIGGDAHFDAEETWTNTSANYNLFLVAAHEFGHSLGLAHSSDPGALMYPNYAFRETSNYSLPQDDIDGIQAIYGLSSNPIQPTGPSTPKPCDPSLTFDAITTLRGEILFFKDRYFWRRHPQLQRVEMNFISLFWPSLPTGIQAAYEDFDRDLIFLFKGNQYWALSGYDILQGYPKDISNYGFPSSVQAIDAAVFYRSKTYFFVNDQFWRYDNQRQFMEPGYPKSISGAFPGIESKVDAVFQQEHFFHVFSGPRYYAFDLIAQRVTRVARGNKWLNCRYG
# METHOD: Inhibition of MMP8 (unknown origin) by fluorescence-based FRET assay
Write down the numeric answer in nM and omit the unit.

{"CHEMICAL STRING": "COCc1cc(COc2ccc([C@]3(N)CCN([C@H](CC(C)C)C(=O)NO)C3=O)cc2)c2ccccc2n1", "TESTED TARGET": "Neutrophil collagenase (Homo sapiens, UniProt P22894)", "VALUE TYPE": "IC50", "UNIT DESCRIPTOR": "nM", "RESULT VALUE": 1010}
{"CHEMICAL STRING": "COCCc1cc(COc2ccc([C@]3(N)CCN([C@H](CC(C)C)C(=O)NO)C3=O)cc2)c2ccccc2n1", "TESTED TARGET": "Neutrophil collagenase (Homo sapiens, UniProt P22894)", "VALUE TYPE": "IC50", "UNIT DESCRIPTOR": "nM", "RESULT VALUE": 1000}

As a next step, examine the molecule that follows.
Look up IC50 of "Cc1cc(COc2ccc([C@]3(N)CCN([C@H](CC(C)C)C(=O)NO)C3=O)cc2)c2ccccc2n1" and report it. 299

====

Collected IC50 values appear next to each entry.
# System: Blood
# METHOD: Antiinflammatory activity in human whole blood assessed as inhibition of LPS-induced TNFalpha secretion by ELISA
# Type: functional, tissue-based
Write down the numeric answer in nM and omit the unit.

Record excerpt, results attached:
{"CHEMICAL STRING": "COc1ccc(-c2cc(COc3ccc([C@]4(N)CCN([C@H](CC(C)C)C(=O)NO)C4=O)cc3)c3ccccc3n2)cc1", "UNIT DESCRIPTOR": "nM", "IC50": 250}
{"CHEMICAL STRING": "COCCc1cc(COc2ccc([C@]3(N)CCN([C@H](CC(C)C)C(=O)NO)C3=O)cc2)c2ccccc2n1", "UNIT DESCRIPTOR": "nM", "IC50": 13}
{"CHEMICAL STRING": "CC(C)C[C@H](C(=O)NO)N1CC[C@@](N)(c2ccc(OCc3cc(C4CCCCC4)nc4ccccc34)cc2)C1=O", "UNIT DESCRIPTOR": "nM", "IC50": 177}

As a next step, examine the compound that follows.
State measured IC50 of the compound "Cc1cc(COc2ccc([C@]3(N)CCN([C@H](CC(C)C)C(=O)NO)C3=O)cc2)c2ccccc2n1" with Blood. 60
